Record form. Attribute: PBM binding z-score. Fill in for each entry.
Tested on: PPARg:RXRa (NR concentration 180 nM, RXRa partner concentration 90 nM)
Experiment: PBM binding z-score (relative to random genomic background probes); higher = stronger binding; sequences stand for … in GC…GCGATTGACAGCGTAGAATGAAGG
# answer = number (no unit)

Query block: Fill: PBM binding z-score (PPARg:RXRa (NR concentration 180 nM, RXRa partner concentration 90 nM)) for this sequence CGAACTACGTCATCCAGGACAGTGAATACATTGA
Result block: 0.703

Query block: Fill: PBM binding z-score (PPARg:RXRa (NR concentration 180 nM, RXRa partner concentration 90 nM)) for this sequence ATCGAAAGGTCGTGAGGTAAGTATACAGAAAGGC
Result block: 4.03

Query block: Fill: PBM binding z-score (PPARg:RXRa (NR concentration 180 nM, RXRa partner concentration 90 nM)) for this sequence ATCGAAAGGTCATGAGGTGAGTATACAGAAAGGC
Result block: 9.07

Query block: Fill: PBM binding z-score (PPARg:RXRa (NR concentration 180 nM, RXRa partner concentration 90 nM)) for this sequence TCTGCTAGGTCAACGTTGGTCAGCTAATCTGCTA
Result block: 2.49

Query block: Fill: PBM binding z-score (PPARg:RXRa (NR concentration 180 nM, RXRa partner concentration 90 nM)) for this sequence CGAACTAGGTCAAAGGACATTGAAAGGCGACGTA
Result block: 10.8

Query block: Fill: PBM binding z-score (PPARg:RXRa (NR concentration 180 nM, RXRa partner concentration 90 nM)) for this sequence ACTCGGAGGACAAAGGTCAGGGCTACGCCAGTGA
Result block: 9.17

Query block: Fill: PBM binding z-score (PPARg:RXRa (NR concentration 180 nM, RXRa partner concentration 90 nM)) for this sequence AGTCAAACTTCAGGACGAGGTAACGTAAAGCACG
Result block: 0.919

Query block: Fill: PBM binding z-score (PPARg:RXRa (NR concentration 180 nM, RXRa partner concentration 90 nM)) for this sequence CAAAATAGGTCACAGAGGTCAAAGTCCGTGCGTA
Result block: 9.92

Query block: Fill: PBM binding z-score (PPARg:RXRa (NR concentration 180 nM, RXRa partner concentration 90 nM)) for this sequence AGAATGAGATTACCAAAGATCAGGGAAACGCTTG
Result block: 0.538

Query block: Fill: PBM binding z-score (PPARg:RXRa (NR concentration 180 nM, RXRa partner concentration 90 nM)) for this sequence AATACAGGGTCATCGTACGCCAGAGTACGCACAG
Result block: 7.02

Query block: Fill: PBM binding z-score (PPARg:RXRa (NR concentration 180 nM, RXRa partner concentration 90 nM)) for this sequence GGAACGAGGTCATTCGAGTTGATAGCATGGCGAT
Result block: 6.59

Query block: Fill: PBM binding z-score (PPARg:RXRa (NR concentration 180 nM, RXRa partner concentration 90 nM)) for this sequence CCTTACGGGTCACGTGGTTATAGCACGACGAGCG
Result block: 6.07
